Data credit: the supplement of paper PMC10567573

B1: TMEM106C (parent)
chain: SEQLVNFTGKAEMGGPFSYVYFFC

- Variants of: B1
- protocolNotes: protein stability index of a GFP-peptide fusion (GPS, HEK-293T) (PSI 1-6); higher = more stable;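 also: lentivirally expressed fusions sorted by FACS into six bins by GFP to DsRed ratio, PSI derived from sequencing read proportions per bin multiplied by bin number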
- conditionParameters: c terminus: a fixed tail appended
readoutKind: protein stability index
API note: the answer field is a bare number with no unit suffix.

Completed entries (count: 5):
G9W: 2.95
S1T: 3.09
K10V: 3.02
Y21M: 3.64
S18M: 4.17

With those in mind, consider the next variant.
Ask | Fill in the blank: the reported protein stability index of F22I is ____.
Reply | 1.96
